Test system: ATP;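 note: ATP exposure 15 min at 22 °C before imaging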
Measurement protocol: switch fluorescence ratio, 500 uM ATP over buffer (Cy3 cluster intensity, sum of 5 cycles each) (fold (ratio)); higher = stronger signal-on switching upon ATP binding; sequences stand for … in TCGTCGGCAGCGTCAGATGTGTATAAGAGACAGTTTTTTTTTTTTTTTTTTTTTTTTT…TC
Condition summary: aptamer strand: ATP DNA aptamer (quencher-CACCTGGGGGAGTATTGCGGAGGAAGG + anchor), 100 nM annealed; ATP concentration: 500 uM
Metric: switch fluorescence ratio
Numbers only.

| Sequence | Number |
| --- | --- |
| GATGGAGTGT | 0.978 |
| TGGGAGAAAG | 0.999 |
| TGTCATGTAT | 0.987 |
| AGTGGATGGG | 0.986 |

For each entry beneath this line, provide reported switch fluorescence ratio.
1. GGCGGCTACG
2. AGGCTTGAGG
3. CAATTTGATG
4. GCGCTTGGGG
5. CAGCTTATCG
6. GAAGGCCTTG

Outgoing:
1: 1; 2: 0.99; 3: 0.979; 4: 0.982; 5: 0.995; 6: 1.01

For each entry beneath this line, provide reported switch fluorescence ratio.
1. ATTGAAGATT
2. ATTTTTCTTT

Outgoing:
0.989
0.992

For each entry beneath this line, provide reported switch fluorescence ratio.
1. AGGTAGGGCA
2. AACGTTGGAG
3. AAAGGTATTC

Outgoing:
[0.976, 1.02, 1]

For each entry beneath this line, provide reported switch fluorescence ratio.
1. TAAAAATCTT
2. TGCAGATCGG
3. ATGCCATTAA
4. CAAATAACGG
5. TGAGGAGGG
6. AAGTTTCGGG
7. GATTGAATTT
8. TTTCTTGGCG

Outgoing:
[1.01, 0.993, 0.972, 1, 0.975, 0.987, 0.989, 1]

---

Tested on: ATP;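 note: ATP exposure 15 min at 22 °C before imaging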
Measurement protocol: switch fluorescence ratio, 500 uM ATP over buffer (Cy3 cluster intensity, sum of 5 cycles each) (fold (ratio)); higher = stronger signal-on switching upon ATP binding; sequences stand for … in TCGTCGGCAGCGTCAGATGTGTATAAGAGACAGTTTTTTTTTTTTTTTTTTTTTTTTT…TC
Condition summary: aptamer strand: ATP DNA aptamer (quencher-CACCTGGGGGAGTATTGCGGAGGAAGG + anchor), 100 nM annealed; ATP concentration: 500 uM
Metric: switch fluorescence ratio

Consider the reported switch fluorescence ratio for these sequences:
| Sequence | System name | Metric | Result |
| --- | --- | --- | --- |
| GGGGTAGAGA | ATP | switch fluorescence ratio | 0.99 |
| TTGATCCAGT | ATP | switch fluorescence ratio | 0.997 |
| GCGCGCGACT | ATP | switch fluorescence ratio | 1 |
| AGATATTTAT | ATP | switch fluorescence ratio | 0.987 |
| TGGATGGAAT | ATP | switch fluorescence ratio | 0.961 |

For each entry beneath this line, provide reported switch fluorescence ratio.
1. TTTTGAGAGG
2. ACGGTTCCAT
3. ATCACGGTGC
4. TCGGGAGGTT
5. TCATTCCTTT
6. CGGATGGTCA
7. TGGGATACTG

Outgoing:
0.983
0.97
1.1
1.01
1.01
1.01
1

For each entry beneath this line, provide reported switch fluorescence ratio.
1. GAGGCTAGGT
2. TTAGTACTGC
3. TCATCGGGGC
4. AATGTATTTT

Outgoing:
1.01
1.03
1.03
1.01

For each entry beneath this line, provide reported switch fluorescence ratio.
1. GATGGAGTTG
2. GCCTTGTTCA

Outgoing:
1.01
0.993

---

System: ATP;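 note: ATP exposure 15 min at 22 °C before imaging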
Measurement protocol: switch fluorescence ratio, 500 uM ATP over buffer (Cy3 cluster intensity, sum of 5 cycles each) (fold (ratio)); higher = stronger signal-on switching upon ATP binding; sequences stand for … in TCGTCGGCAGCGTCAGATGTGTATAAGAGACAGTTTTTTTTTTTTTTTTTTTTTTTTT…TC
Condition summary: aptamer strand: ATP DNA aptamer (quencher-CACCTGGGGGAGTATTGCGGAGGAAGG + anchor), 100 nM annealed; ATP concentration: 500 uM
Exercise: for every item that follows, state its recorded switch fluorescence ratio.
Give bare numbers.

| Sequence | System name | Metric | Number |
| --- | --- | --- | --- |
| TTTTTCCTCT | ATP | switch fluorescence ratio | 1.04 |
| GAGAGATAGT | ATP | switch fluorescence ratio | 1.03 |

For each entry beneath this line, provide reported switch fluorescence ratio.
1. ATGAGAATTA
2. CTTGTTTCTC
3. TGGGACGGGC
4. CAAATGTCGT
5. TGGTAGAGTT

Outgoing:
[1.01, 0.971, 0.98, 1.01, 1]

---

Exercise: for every item that follows, state its recorded switch fluorescence ratio.
System: ATP;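 note: ATP exposure 15 min at 22 °C before imaging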
Measurement protocol: switch fluorescence ratio, 500 uM ATP over buffer (Cy3 cluster intensity, sum of 5 cycles each) (fold (ratio)); higher = stronger signal-on switching upon ATP binding; sequences stand for … in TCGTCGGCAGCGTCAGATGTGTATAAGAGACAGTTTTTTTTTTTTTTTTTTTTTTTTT…TC
Condition summary: aptamer strand: ATP DNA aptamer (quencher-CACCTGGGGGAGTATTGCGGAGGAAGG + anchor), 100 nM annealed; ATP concentration: 500 uM
Give bare numbers.

Consider the reported switch fluorescence ratio for these sequences:
| Sequence | switch fluorescence ratio |
| --- | --- |
| GGAGATATGT | 0.987 |
| GATGGCCCTT | 0.991 |
| GGAGGTGTGT | 1.02 |
| CTCGGGGAGT | 1.01 |

For each entry beneath this line, provide reported switch fluorescence ratio.
1. ATGATTAATT
2. CCGGTTGTTG

Outgoing:
1. 1.03
2. 1.03

---

System: ATP;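 note: ATP exposure 15 min at 22 °C before imaging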
Measurement protocol: switch fluorescence ratio, 500 uM ATP over buffer (Cy3 cluster intensity, sum of 5 cycles each) (fold (ratio)); higher = stronger signal-on switching upon ATP binding; sequences stand for … in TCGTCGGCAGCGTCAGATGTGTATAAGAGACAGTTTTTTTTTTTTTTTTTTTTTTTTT…TC
Condition summary: aptamer strand: ATP DNA aptamer (quencher-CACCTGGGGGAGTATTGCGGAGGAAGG + anchor), 100 nM annealed; ATP concentration: 500 uM
Exercise: for every item that follows, state its recorded switch fluorescence ratio.
Numbers only.

| Sequence | switch fluorescence ratio |
| --- | --- |
| AGAATGGAAC | 0.976 |
| AAGATGGCAG | 0.986 |
| AAAATGCGCT | 0.975 |
| AAATTCACTT | 0.997 |

For each entry beneath this line, provide reported switch fluorescence ratio.
1. TGTTTGTGGT
2. GTATGAAAAG
3. ATCTTTACCT
4. TGGGGAATAA

Outgoing:
1. 0.987
2. 0.974
3. 1.26
4. 1.01

For each entry beneath this line, provide reported switch fluorescence ratio.
1. TTTAAGAGCT
2. GCAGCATCTG
3. TAGGTTCGAC
4. GATGGGGCGC
5. GATCGAAACT
6. TTGCTTCCGT
7. CGAGAAGTTT

Outgoing:
[0.997, 1.01, 0.972, 0.975, 1.01, 1.1, 1.01]

For each entry beneath this line, provide reported switch fluorescence ratio.
1. AACAGGGTTT
2. TAAAGTGCGA
3. TTAAAGATGG

Outgoing:
[1.01, 0.993, 1]

For each entry beneath this line, provide reported switch fluorescence ratio.
1. TTTTGATACG
2. CCGCGACAAG
3. ATTGCTATTC
4. CCTCCAGGGT
5. ATTGGTCAGC
6. GATGGGGCGT
7. AGGGTTAGTG

Outgoing:
0.996
2.18
1.03
2.5
0.982
0.989
0.979

---

Exercise: for every item that follows, state its recorded switch fluorescence ratio.
Tested on: ATP;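 note: ATP exposure 15 min at 22 °C before imaging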
Measurement protocol: switch fluorescence ratio, 500 uM ATP over buffer (Cy3 cluster intensity, sum of 5 cycles each) (fold (ratio)); higher = stronger signal-on switching upon ATP binding; sequences stand for … in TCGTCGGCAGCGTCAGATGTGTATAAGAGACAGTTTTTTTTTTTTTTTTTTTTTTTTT…TC
Condition summary: aptamer strand: ATP DNA aptamer (quencher-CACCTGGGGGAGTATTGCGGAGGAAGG + anchor), 100 nM annealed; ATP concentration: 500 uM
Answers are plain numbers.

Consider the reported switch fluorescence ratio for these sequences:
| Sequence | switch fluorescence ratio |
| --- | --- |
| AGGGGCCGGT | 1.01 |
| GAATGTTCGG | 0.999 |
| GTTATATGTG | 0.982 |
| AAAGATTCGA | 0.996 |
| ATAGGCGCGG | 1.01 |
| GTGGGCATGG | 0.977 |
| GTTTAGTTTG | 0.992 |
| TACATGGTTT | 1.01 |
| CATACGTAGT | 1.01 |
| GGCCGGATGG | 0.991 |

For each entry beneath this line, provide reported switch fluorescence ratio.
1. GGGGATGTAA
2. ACCTAATGTT
3. TCTTTTTGTT
4. GGCAGCTGGT
5. AAGGTTAATG
6. GGGTCCTAAG

Outgoing:
1. 1.01
2. 1.02
3. 0.99
4. 1.01
5. 1
6. 0.975

For each entry beneath this line, provide reported switch fluorescence ratio.
1. TTCTAAAGGT
2. TCGCTGAGG
3. TTTTCCATTG

Outgoing:
1. 1.02
2. 0.992
3. 1.01
